Target: T1, ECF31_34
T1 chain: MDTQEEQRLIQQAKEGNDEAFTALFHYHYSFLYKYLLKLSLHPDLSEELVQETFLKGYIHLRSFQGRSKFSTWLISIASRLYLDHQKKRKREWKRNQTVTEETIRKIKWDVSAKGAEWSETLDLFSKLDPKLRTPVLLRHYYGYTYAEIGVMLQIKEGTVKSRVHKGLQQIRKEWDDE
fold repression values for the binders below.
Please reply with the number alone, leaving off any unit.

AS22_4450 (protein) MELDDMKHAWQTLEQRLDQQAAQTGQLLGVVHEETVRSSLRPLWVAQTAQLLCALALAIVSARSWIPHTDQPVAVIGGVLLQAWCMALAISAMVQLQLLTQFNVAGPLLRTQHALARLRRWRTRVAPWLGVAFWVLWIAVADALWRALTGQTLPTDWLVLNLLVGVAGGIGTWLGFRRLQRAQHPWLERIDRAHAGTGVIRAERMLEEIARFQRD : 1.48

Ask: Specify reported fold repression for the binder shown: AS04_1609 (protein) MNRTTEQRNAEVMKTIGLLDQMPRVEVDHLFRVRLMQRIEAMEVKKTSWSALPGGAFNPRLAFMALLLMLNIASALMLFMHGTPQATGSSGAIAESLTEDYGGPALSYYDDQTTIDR
Result: 3.92

Ask: Specify reported fold repression for the binder shown: AS03_1244 (protein) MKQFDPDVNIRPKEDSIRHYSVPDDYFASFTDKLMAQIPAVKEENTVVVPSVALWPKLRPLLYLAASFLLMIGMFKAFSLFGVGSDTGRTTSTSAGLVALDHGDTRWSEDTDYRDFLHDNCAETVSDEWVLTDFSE
Result: 1.92
